- assay summary: patients with anti-drug antibodies; higher = more immunogenic
quantity kind: patients with anti-drug antibodies (%)
Reply with just the number (in %).

For the protein shown here, unnamed (protein) chain 1: QVTLRESGPALVKPTQTLTLTCTVSGFSLSAYSVNWIRQPPGKALEWLAMIWGDGKIVYNSALKSRLTISKDTSKNQVVLTMTNMDPVDTATYYCAGDGYYPYAMDNWGQGSLVTVSS chain 2: DIVMTQSPDSLSVSLGERATINCRASKSVDSYGNSFMHWYQQKPGQPPKLLIYLASNLESGVPDRFSGSGSGTDFTLTISSLQAEDVAVYYCQQNNEDPRTFGGGTKVEIK , give the reported patients with anti-drug antibodies. 30

Sample unnamed (protein) chain 1: QVQLQQPGAELVRPGASVKLSCKASGYTFTSYWINWVKQRPGQGLEWIGNIYPSDSYTNYNQKFKDKATLTVDKSSSTAYMQLSSPTSEDSAVYYCTRSWRGNSFDYWGQGTTLTVSS chain 2: DIVMTQSPSSLTVTAGEKVTMSCKSSQSLLNSGNQKNYLTWYQQKPGQPPKLLIYWASTRESGVPDRFTGSGSGTDFTLTISSVQAEDLAVYYCQNDYSYPFTFGSGTKLEIK — what was its patients with anti-drug antibodies? 0

What does the data say about its patients with anti-drug antibodies? Entry: unnamed (protein) chain 1: EVQLLESGGGLVQPGGSLRLSCAASGFTFSSYIMMWVRQAPGKGLEWVSSIYPSGGITFYADTVKGRFTISRDNSKNTLYLQMNSLRAEDTAVYYCARIKLGTVTTVDYWGQGTLVTVSS chain 2: QSALTQPASVSGSPGQSITISCTGTSSDVGGYNYVSWYQQHPGKAPKLMIYDVSNRPSGVSNRFSGSKSGNTASLTISGLQAEDEADYYCSSYTSSSTRVFGTGTKVTVL 5
